- protocol_text: Change in appearance of the salts at room temperature for 24 hours
- Format: physicochemical
- test_conditions: dried material, initial
endpoint: Initial appearance

# annotated cases, reported Initial appearance shown
INSERT INTO measurements (compound, endpoint_result) VALUES
  ('O=S(=O)(O)O', 'Gel-like'),
  ('O=C(O)c1ccccc1', 'Foam'),
  ('O=S(=O)(O)c1ccc2ccccc2c1', 'Powder'),
  ('O=C(O)CCCC(=O)O', 'Powder'),
  ('Cl [Hydrochloric acid]', 'Gel-like'),
  ('CN(C)CCCNC(=O)/C(=C/CCCCC(=O)NO)COc1cccc2ccccc12.O=C(O)[C@H](O)[C@@H](O)[C@H](O)[C@H](O)CO', 'Powder');

Challenge: Request the reported Initial appearance associated with O=C(O)/C=C\C(=O)O
Response given: Foam

Challenge: Request: CN(C)CCCNC(=O)/C(=C/CCCCC(=O)NO)COc1cccc2ccccc12.CS(=O)(=O)O
Response given: Foam

Challenge: Request: CCS(=O)(=O)O
Response given: Foam

Challenge: Request: O=C(O)CNC(=O)c1ccccc1
Response given: Foam
